FYI, the data here is from ChEMBL document CHEMBL2331441.

Listing: Ratio IC50 of selected compounds
system_name: 3',5'-cyclic-AMP phosphodiesterase 4B (Homo sapiens)
Sequence (Q07343 whole entry): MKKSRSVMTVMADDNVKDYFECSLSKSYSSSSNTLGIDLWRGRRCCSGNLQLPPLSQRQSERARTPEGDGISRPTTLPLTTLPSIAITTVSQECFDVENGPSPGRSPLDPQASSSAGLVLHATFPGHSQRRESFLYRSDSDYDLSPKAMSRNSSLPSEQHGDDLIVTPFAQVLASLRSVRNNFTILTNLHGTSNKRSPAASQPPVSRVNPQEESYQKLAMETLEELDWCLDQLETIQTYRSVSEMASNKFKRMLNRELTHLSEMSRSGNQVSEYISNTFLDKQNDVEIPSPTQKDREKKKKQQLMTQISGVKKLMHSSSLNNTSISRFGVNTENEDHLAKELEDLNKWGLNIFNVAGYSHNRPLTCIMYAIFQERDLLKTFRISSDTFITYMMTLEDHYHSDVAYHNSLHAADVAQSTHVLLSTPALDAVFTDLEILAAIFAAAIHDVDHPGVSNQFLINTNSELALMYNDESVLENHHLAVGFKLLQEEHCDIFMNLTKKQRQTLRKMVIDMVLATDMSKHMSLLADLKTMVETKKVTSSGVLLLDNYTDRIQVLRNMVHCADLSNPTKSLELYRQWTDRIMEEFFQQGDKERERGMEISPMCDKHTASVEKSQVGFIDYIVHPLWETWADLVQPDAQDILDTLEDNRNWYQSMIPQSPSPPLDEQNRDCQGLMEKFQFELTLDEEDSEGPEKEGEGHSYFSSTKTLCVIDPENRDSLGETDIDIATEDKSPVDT
experiment_summary: Ratio of IC50 for KCA-1450 to compound IC50 for PDE4B (unknown origin) by radiochemical assay
result_type: Ratio IC50

compound | system_name | numeric_readout
COc1ccc(C2=NN(CCCCOc3ccc(C4=NNC(=O)CC4C)cc3)C(=O)CC2C)c2cc(C(F)(F)F)nn12 (centres undefined) | 3',5'-cyclic-AMP phosphodiesterase 4B (Homo sapiens) | 23
COc1ccc(C2=NN(CCOc3ccc(C4=NNC(=O)CC4C)cc3)C(=O)CC2C)c2cc(C(F)(F)F)nn12 (centres undefined) | 3',5'-cyclic-AMP phosphodiesterase 4B (Homo sapiens) | 23
COc1ccc(C2=NN(CCCOc3ccc(C4=NNC(=O)CC4C)cc3)C(=O)CC2C)c2cc(C(F)(F)F)nn12 (centres undefined) | 3',5'-cyclic-AMP phosphodiesterase 4B (Homo sapiens) | 23
COc1ccc(C2=NN(CCCCCOc3ccc(C4=NNC(=O)CC4C)cc3)C(=O)CC2C)c2cc(C(F)(F)F)nn12 (centres undefined) | 3',5'-cyclic-AMP phosphodiesterase 4B (Homo sapiens) | 23
